B1: Nuclear receptor subfamily 4 group A member 2, residues 260 to 336; numbered along this chain, P43354 (parent)
chain: EGLCAVCGDNAACQHYGVRTCEGCKGFFKRTVQKNAKYVCLANKNCPVDKRRRNRCQYCRFQKCLAVGMVKEVVRTD

- Variants of: B1
- measurement.notes: abundance fitness (aPCA) (normalised: wild type 0, dead -1); higher = more abundant; growth selection in yeast, the domain comes from the species named
- measurement.parameters: Homo sapiens
measured.metric: abundance fitness
Lab note: jot down the number only; don't add units.

EGLCAVCGDNAACQHYGVRTCEGCKGFFKRTVQKNAKYVCLANKNCPVDKRRRNRCQYCRFQKCLAVGFVKEVVRTD: -0.042
EGLCAVCGDNAACQHYGVRTCEGCKGFFKRTVQKNAKYVCLANKNCPVDKRRRNRCQYCRFQKCLAVGMVKEVVSTD: 0.063
EGLCAVCGDNAACQHYGVRTCEGCKGFFKRTVQKNAKYVCLANKNCPVDKRRRNRCQYCRFQKCLAVFMVKEVVRTD: -0.436

Give the reported value of abundance fitness for this record: EGLCAVCGDNAACQHYGVRTCEGCKGFFKRTVQKEAKYVCLANKNCPVDKRRRNRCQYCRFQKCLAVGMVKEVVRTD
0.071

In one line, give reported abundance fitness of the entry EGLCAVCGDNAAWQHYGVRTCEGCKGFFKRTVQKNAKYVCLANKNCPVDKRRRNRCQYCRFQKCLAVGMVKEVVRTD .
0.082

Hello, please tell me recorded abundance fitness for this one: EGLCAVCGDNAACQHYGVRTCEGCKGFFKRTVQKNAQYVCLANKNCPVDKRRRNRCQYCRFQKCLAVGMVKEVVRTD
-0.041

Consider the variant EGLCAVCGDNAACQHYGVRTCEGCKGFFKRTVQKNAKYVCLANKNCPVDKRRRNRCQYCRFQKCSAVGMVKEVVRTD . State its measured abundance fitness.
-0.308

Answer with reported abundance fitness of EGLCAVCGDNAACQHYGVRTCEGCKGFFKRTVQKNAKYVCVANKNCPVDKRRRNRCQYCRFQKCLAVGMVKEVVRTD
0.022

Write down abundance fitness measured for item EGLCAVCGDNAACQHYGVRTCEGCKGFFKRTVQKNAKYVCLANKNCPVDKRRRNRCQYCVFQKCLAVGMVKEVVRTD
0.01

# return recorded abundance fitness for input EGLCAVCGDNAACQHYGVRTCEGCKGFFKRTVQKNAKYVCLANKNCPVDKRRRNRCQYCRFQKCLAVGMVKEVGRTD
-0.013
